System: HaCat
Test: Cytotoxic Profiling of Annotated Libraries Using Quantitative High-Throughput Screening (AID 1296008); note: nearly all actives have a fitted effect of over 60% in size
Settings: Five cell lines viability, CellTiter-Glo ATP luminescence, 48-72 h
Results filed as inconclusive are left out. Calls of active or inactive are those of the source. Calls come from the whole dose curve; as a rule, active = well fitted inhibition curve with a large enough effect; inconclusive = small, poorly fitted or top-dose-only effect; inactive = flat fitted curve, though single readings scatter.
Classes used: T = active, F = inactive

INSERT INTO measurements (molecule, test_system, class) VALUES
  ('Cc1cc(Nc2nc(N[C@@H](C)c3ncc(F)cn3)ncc2Cl)n[nH]1', 'HaCat', 'T'),
  ('CCOc1ccn(-c2ccc(F)cc2)c(=O)c1C(=O)Nc1ccc(Oc2ccnc(N)c2Cl)c(F)c1', 'HaCat', 'T'),
  ('CCC(=O)N[C@H]1CC[C@H](C(=O)N(C)c2ccc(-c3nc4ccccc4o3)cc2)C1', 'HaCat', 'F'),
  ('O=C(Nc1nc2ccccc2n1CCN1CCOCC1)c1cccc([N+](=O)[O-])c1', 'HaCat', 'F'),
  ('CCN(c1ccccc1)c1cc(NC)[n+](C)c(C)n1', 'HaCat', 'F'),
  ('CC(C=CC1=C(C)CCCC1(C)C)=CC=CC(C)=CC(=O)O', 'HaCat', 'F'),
  ('NC(N)=NC(=O)c1nc(Cl)c(N)nc1N', 'HaCat', 'F'),
  ('COc1cc(Oc2ccnc3cc(OC)c(OC)cc23)ccc1NC(=O)NC(C)c1nccs1 (stereo not drawn)', 'HaCat', 'F'),
  ('O=c1[nH]cnc2[nH]ncc12', 'HaCat', 'F'),
  ('CS(=O)(=O)c1cccc(CNc2nc(Nc3ccc4c(c3)CCC(=O)N4)ncc2C(F)(F)F)c1', 'HaCat', 'T'),
  ('C[C@@H]1CN(Cc2ccc(F)cc2)[C@@H](C)CN1C(=O)c1cc2c(C(=O)C(=O)N(C)C)cn(C)c2cc1Cl', 'HaCat', 'F'),
  ('NC(=O)c1ccc(-c2nc(-c3ccc4c(c3)OCO4)c(-c3ccccn3)[nH]2)cc1', 'HaCat', 'F'),
  ('CC[C@@H](C)[C@H](NC(=O)[C@H](CC1CCCCC1)NC(=O)c1ccno1)C(=O)N1CCC2(CCc3ccccc32)CC1', 'HaCat', 'F'),
  ('N=c1nc(N2CCCCC2)cc(N)n1O', 'HaCat', 'F'),
  ('Nc1ccc(S(=O)(=O)Nc2ccnn2-c2ccccc2)cc1', 'HaCat', 'F'),
  ('O=NN(CCCl)C(=O)NCCCl', 'HaCat', 'F'),
  ('CN[C@@H](C)C(=O)N[C@H]1CCCC[C@H]2CC[C@@H](C(=O)N[C@@H](c3ccccc3)c3cn(CCCCc4ccc(CCCCn5cc([C@@H](NC(=O)[C@@H]6CC[C@@H]7CCCC[C@H](NC(=O)[C@H](C)NC)C(=O)N76)c6ccccc6)nn5)cc4)nn3)N2C1=O', 'HaCat', 'F'),
  ('CN(C(=O)c1ccc(F)cc1C(F)(F)F)C1CCN(c2nnc(-c3ccnn3C)c3ccccc23)CC1', 'HaCat', 'F'),
  ('COc1c(Cl)cc2c([nH]c3cnccc32)c1NC(=O)c1cccnc1C', 'HaCat', 'F'),
  ('Cc1ccccc1C(OCCN(C)C)c1ccccc1 (stereo not drawn)', 'HaCat', 'F'),
  ('CCC(C)N(C)C(=O)c1cc2ccccc2c(-c2ccccc2Cl)n1 (stereo not drawn)', 'HaCat', 'F'),
  ('NC(=O)c1cnccn1', 'HaCat', 'F'),
  ('N#CC[C@H](C1CCCC1)n1cc(-c2ncnc3[nH]ccc23)cn1', 'HaCat', 'F'),
  ('c1ccc([C@H]2CN3CCSC3=N2)cc1', 'HaCat', 'F'),
  ('NS(=O)(=O)c1cc2c(cc1Cl)NC=NS2(=O)=O', 'HaCat', 'F'),
  ('O=C1CCc2cc(OCCCCc3nnnn3C3CCCCC3)ccc2N1', 'HaCat', 'F'),
  ('Cc1ccc(N(CC2=NCCN2)c2cccc(O)c2)cc1', 'HaCat', 'F'),
  ('CCCC(CCC)C(=O)O', 'HaCat', 'F'),
  ('O=C1[C@H](Cc2ccc(O)cc2)N2C(=O)CCN(C(=O)NCc3ccccc3)[C@H]2CN1Cc1cccc2ccccc12', 'HaCat', 'T'),
  ('Cn1cnc2c(F)c(Nc3ccc(Br)cc3Cl)c(C(=O)NOCCO)cc21', 'HaCat', 'T'),
  ('Cc1ccc(-n2nc(C(C)(C)C)cc2NC(=O)Nc2ccc(OCCN3CCOCC3)c3ccccc23)cc1', 'HaCat', 'F'),
  ('Cc1cc(-c2ccc(CC(=O)Nc3ccc(-c4cccnc4)cc3)cc2)ccn1', 'HaCat', 'F'),
  ('O=C(O)CCc1ccc(NCc2cccc(Oc3ccccc3)c2)cc1', 'HaCat', 'F'),
  ('CC(C)NCC(O)COc1ccc(COCCOC(C)C)cc1 (stereo not drawn)', 'HaCat', 'F'),
  ('Clc1ccc(Nc2nnc(Cc3ccncc3)c3ccccc23)cc1', 'HaCat', 'F'),
  ('NCCCC(N)(C(=O)O)C(F)F (stereo not drawn)', 'HaCat', 'F'),
  ('O=C(Nc1ccc(F)c(C(F)(F)F)c1)Nc1nnc(-c2ccncc2)s1', 'HaCat', 'F'),
  ('COc1nc(-c2ccc3c(c2)OCO3)n(-c2ccc(NC(=O)CSc3ccccc3)cc2)n1', 'HaCat', 'F'),
  ('NC(=O)c1ccc(I)c([N+](=O)[O-])c1', 'HaCat', 'F'),
  ('COc1ccc(COc2cc3oc(=O)c4cc(C(C)O)ccc4c3cc2OC)cc1 (stereo not drawn)', 'HaCat', 'F'),
  ('Cc1ccc(NC(=O)c2cccc(C(C)(C)C#N)c2)cc1Nc1ccc2ncn(C)c(=O)c2c1', 'HaCat', 'T'),
  ('CCN(CC)CCCC(C)Nc1ccnc2cc(Cl)ccc12 (stereo not drawn)', 'HaCat', 'F'),
  ('Fc1ccc(Cl)cc1-c1nc(Nc2ccncc2)c2nccnc2n1', 'HaCat', 'F');

###

Experiment: qHTS profiling for inhibitors of Plasmodium falciparum (DD2) proliferation (AID 743323)
Settings: lower = more inhibition; at 28.7 µM (top of the series) unless noted
activity, percent of control vs 50%: less than gives condition met; not less than gives condition not met.

INSERT INTO results (compound_structure, class) VALUES
  ('Cc1[nH]c(=O)c(C#N)cc1-c1ccc2nccn2c1', 'condition not met'),
  ('COc1c(Cl)cc2c([nH]c3cnccc32)c1NC(=O)c1cccnc1C', 'condition not met'),
  ('Cc1cnc(Nc2ccc(OCCN3CCCC3)cc2)nc1Nc1cccc(S(=O)(=O)NC(C)(C)C)c1', 'condition not met'),
  ('NC(=O)c1ccc(-c2nc(-c3ccc4c(c3)OCCO4)c(-c3ccccn3)[nH]2)cc1', 'condition met'),
  ('Cc1c(CN2CCN(C(=O)C(C)C)CC2)sc2c(N3CCOCC3)nc(-c3cnc(N)nc3)nc12', 'condition met'),
  ('O=S(=O)(N=Cc1c(O)ccc2ccccc12)c1cccs1', 'condition not met'),
  ('C[C@]12CC[C@H](O)CC1=CC[C@@H]1[C@H]2CC[C@]2(C)C(c3cccnc3)=CC[C@H]12', 'condition met'),
  ('OCCC#Cc1nc(-c2ccc(F)cc2)c(-c2ccncc2)n1CCCc1ccccc1', 'condition met'),
  ('CC1(C)CNc2cc(NC(=O)c3cccnc3NCc3ccncc3)ccc21', 'condition not met'),
  ('CCOc1cc(C=C2C(=O)N(c3ccccc3)N=C2C)cc(Cl)c1OCC(=O)OC', 'condition not met');

###

Target: Luciferin 4-monooxygenase (Photinus pyralis) (UniProt P08659)
Sequence (P08659 whole entry, looked up): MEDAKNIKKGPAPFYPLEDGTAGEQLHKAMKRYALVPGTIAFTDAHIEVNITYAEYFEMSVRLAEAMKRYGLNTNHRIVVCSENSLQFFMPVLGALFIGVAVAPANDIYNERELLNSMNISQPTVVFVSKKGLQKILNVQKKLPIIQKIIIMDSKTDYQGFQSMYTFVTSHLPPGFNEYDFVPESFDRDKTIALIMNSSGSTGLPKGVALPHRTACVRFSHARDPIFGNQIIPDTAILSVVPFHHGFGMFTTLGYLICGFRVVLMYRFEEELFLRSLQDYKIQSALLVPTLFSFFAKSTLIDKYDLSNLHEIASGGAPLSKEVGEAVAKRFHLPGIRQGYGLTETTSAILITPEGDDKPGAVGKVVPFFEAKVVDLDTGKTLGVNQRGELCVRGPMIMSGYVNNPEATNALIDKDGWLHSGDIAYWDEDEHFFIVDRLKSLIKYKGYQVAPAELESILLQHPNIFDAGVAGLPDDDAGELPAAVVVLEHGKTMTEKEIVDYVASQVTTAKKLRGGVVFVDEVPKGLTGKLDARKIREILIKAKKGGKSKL
Assay: Biochemical firefly luciferase enzyme assay for NPC (AID 624030); note: nearly all actives have a fitted effect of over 70% in size; note: potency is the fitted concentration of half-maximal effect
Conditions: purified P. pyralis luciferase, luminescence, 5 min; series mostly up to 58.6 µM
Records with an inconclusive call do not appear. Activity calls are given as the source filed them. Calls follow the shape of the dose curve; as a rule, active = well fitted inhibition curve with a large enough effect; inconclusive = small, poorly fitted or top-dose-only effect; inactive = flat fitted curve, though single readings scatter.
Property name: Potency

INSERT INTO results (compound, property_name, measured_value) VALUES
  ('O=c1[nH]cnc2[nH]ncc12', 'Potency', 'inactive'),
  ('CC(=O)Oc1ccccc1C(=O)O', 'Potency', 'inactive'),
  ('C1COC(NC(C2CC2)C2CC2)=N1', 'Potency', 'inactive'),
  ('NCCCC(N)(C(=O)O)C(F)F (stereo not drawn)', 'Potency', 'inactive'),
  ('OC(CCN1CCCCC1)(c1ccccc1)C1CC2C=CC1C2 (stereo not drawn)', 'Potency', 'inactive'),
  ('NC[C@H](O)c1ccc(O)c(O)c1', 'Potency', 'inactive'),
  ('CNC(=O)c1ccccc1Sc1ccc2c(/C=C/c3ccccn3)n[nH]c2c1', 'Potency', '510 nM (active)'),
  ('NC(=O)c1cnccn1', 'Potency', 'inactive'),
  ('CC(C)(C)NCC(O)c1ccc(O)c(CO)c1 (stereo not drawn)', 'Potency', 'inactive'),
  ('CC(C)NCC(O)COc1ccc(COCCOC(C)C)cc1 (stereo not drawn)', 'Potency', 'inactive'),
  ('O=C1CCc2cc(OCCCCc3nnnn3C3CCCCC3)ccc2N1', 'Potency', 'inactive'),
  ('CCCCNc1cc(C(=O)O)cc(S(N)(=O)=O)c1Oc1ccccc1', 'Potency', 'inactive'),
  ('CCCc1nn(C)c2c(=O)[nH]c(-c3cc(S(=O)(=O)N4CCN(C)CC4)ccc3OCC)nc12', 'Potency', 'inactive');
